experimental details: Pharmacokinetics in mouse
Assay type: in vivo, Balb/c mice
condition summary: male, Balb/c, whole blood, iv, 2 mg/mg, blood
measured property: clearance (mL/min/kg)

{"compound": "CC[C@H]1OC(=O)[C@H](C)[C@@H](O[C@H]2C[C@@](C)(OC)[C@@H](O)[C@@H](C)O2)[C@H](C)[C@@H](O[C@H]2C[C@@H](N(C)C)C[C@@H](C)O2)[C@](C)(O)C[C@@H](C)CN(C)[C@H](C)[C@@H](O)[C@]1(C)O [compound 4, 2′-dehydroxy-5″-epi-azithromycin]", "numeric result": 4.1}

###

experimental details: Pharmacokinetics in dog
Format: in vivo, Beagle dogs
condition summary: beagle, in vivo, intravenous
measured property: clearance (mL/min/kg)

{"molecule": "CC[C@H]1OC(=O)[C@H](C)[C@@H](O[C@H]2C[C@@](C)(OC)[C@@H](O)[C@@H](C)O2)[C@H](C)[C@@H](O[C@H]2C[C@@H](N(C)C)C[C@@H](C)O2)[C@](C)(O)C[C@@H](C)CN(C)[C@H](C)[C@@H](O)[C@]1(C)O [compound 4, 2′-dehydroxy-5″-epi-azithromycin]", "numeric result": 5.5}

###

experimental details: Pharmacokinetics in mouse
Type: in vivo, Balb/c mice
condition summary: male, Balb/c, whole blood, intravenous, 2 mg/mg, read-out: Vss

{"compound": "CC[C@H]1OC(=O)[C@H](C)[C@@H](O[C@H]2C[C@@](C)(OC)[C@@H](O)[C@@H](C)O2)[C@H](C)[C@@H](O[C@H]2C[C@@H](N(C)C)C[C@@H](C)O2)[C@](C)(O)C[C@@H](C)CN(C)[C@H](C)[C@@H](O)[C@]1(C)O [compound 4, 2′-dehydroxy-5″-epi-azithromycin]", "Vd, L/kg": 2}

###

experimental details: Pharmacokinetics in rat
Type: in vivo, Sprague Dawley rats
condition summary: Sprague-Dawley, whole blood, iv, 2 mg/mg, blood
Procedure: Pharmacokinetic profiles were determined in male Balb/c mice and CD Sprague-Dawley rats (Charles River Laboratories, Germany), following single oral (p.o.) and single intravenous (i.v.) bolus administration. […] Samples were extracted by protein precipitation and subjected to quantitative analysis by LC-MS/MS using compound-specific mass transitions. […]

{"compound": "CC[C@H]1OC(=O)[C@H](C)[C@@H](O[C@H]2C[C@@](C)(OC)[C@@H](O)[C@@H](C)O2)[C@H](C)[C@@H](O[C@H]2C[C@@H](N(C)C)C[C@@H](C)O2)[C@](C)(O)C[C@@H](C)CN(C)[C@H](C)[C@@H](O)[C@]1(C)O [compound 4, 2′-dehydroxy-5″-epi-azithromycin]", "clearance": "14.5 mL/min/kg"}
